SYSTEM_NAME: LIM domain kinase 2 (Homo sapiens); further: in the data inactive means no Kd found up to 30 µM
Sequence (P53671 whole entry, the tested form may be a part): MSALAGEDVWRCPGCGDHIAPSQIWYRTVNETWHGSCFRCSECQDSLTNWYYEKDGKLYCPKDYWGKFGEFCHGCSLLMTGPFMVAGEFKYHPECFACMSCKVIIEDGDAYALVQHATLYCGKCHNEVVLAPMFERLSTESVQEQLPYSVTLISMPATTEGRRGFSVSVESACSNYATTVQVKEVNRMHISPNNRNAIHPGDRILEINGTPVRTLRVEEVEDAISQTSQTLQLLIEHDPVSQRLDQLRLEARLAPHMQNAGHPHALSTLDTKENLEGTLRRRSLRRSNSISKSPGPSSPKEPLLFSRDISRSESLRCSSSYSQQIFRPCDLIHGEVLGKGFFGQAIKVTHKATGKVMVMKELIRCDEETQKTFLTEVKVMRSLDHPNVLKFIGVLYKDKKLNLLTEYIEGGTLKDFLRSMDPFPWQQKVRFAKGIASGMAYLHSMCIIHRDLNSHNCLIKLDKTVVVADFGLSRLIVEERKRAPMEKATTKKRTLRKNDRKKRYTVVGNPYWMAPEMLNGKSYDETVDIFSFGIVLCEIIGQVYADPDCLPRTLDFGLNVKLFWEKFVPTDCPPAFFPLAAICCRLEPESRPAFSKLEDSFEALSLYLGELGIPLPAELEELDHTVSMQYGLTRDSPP
Calls of active or inactive are those of the source.
// allowed return values: YES for active, NO for inactive

Exercise: Could you check what this test reported for CCn1c(=O)c(-c2cc[nH]n2)cc2c(C)nc(N)nc21 ?
Key: NO

More entries:
Exercise: Field: outcome | Entry: O=C(Nc1cccc(Cl)c1)Nc1ncc(CCNc2ncnc3ccsc23)s1
Key: NO

Exercise: How did this test come out for CCN1CCN(Cc2ccc(-c3cc4c(N[C@H](C)c5ccccc5)ncnc4[nH]3)cc2)CC1 ?
Key: YES

Exercise: Which outcome was assigned to CC(C)Nc1cc(-c2c[nH]c(C(=O)N[C@H](CO)c3cccc(Cl)c3)c2)c(Cl)cn1 in this test?
Key: NO

These entries and their values trace back to ChEMBL document CHEMBL3991601.
